# experimental_system: Sodium channel protein type 10 subunit alpha (Homo sapiens, UniProt Q9Y5Y9)
# Sequence (Q9Y5Y9 whole entry, looked up): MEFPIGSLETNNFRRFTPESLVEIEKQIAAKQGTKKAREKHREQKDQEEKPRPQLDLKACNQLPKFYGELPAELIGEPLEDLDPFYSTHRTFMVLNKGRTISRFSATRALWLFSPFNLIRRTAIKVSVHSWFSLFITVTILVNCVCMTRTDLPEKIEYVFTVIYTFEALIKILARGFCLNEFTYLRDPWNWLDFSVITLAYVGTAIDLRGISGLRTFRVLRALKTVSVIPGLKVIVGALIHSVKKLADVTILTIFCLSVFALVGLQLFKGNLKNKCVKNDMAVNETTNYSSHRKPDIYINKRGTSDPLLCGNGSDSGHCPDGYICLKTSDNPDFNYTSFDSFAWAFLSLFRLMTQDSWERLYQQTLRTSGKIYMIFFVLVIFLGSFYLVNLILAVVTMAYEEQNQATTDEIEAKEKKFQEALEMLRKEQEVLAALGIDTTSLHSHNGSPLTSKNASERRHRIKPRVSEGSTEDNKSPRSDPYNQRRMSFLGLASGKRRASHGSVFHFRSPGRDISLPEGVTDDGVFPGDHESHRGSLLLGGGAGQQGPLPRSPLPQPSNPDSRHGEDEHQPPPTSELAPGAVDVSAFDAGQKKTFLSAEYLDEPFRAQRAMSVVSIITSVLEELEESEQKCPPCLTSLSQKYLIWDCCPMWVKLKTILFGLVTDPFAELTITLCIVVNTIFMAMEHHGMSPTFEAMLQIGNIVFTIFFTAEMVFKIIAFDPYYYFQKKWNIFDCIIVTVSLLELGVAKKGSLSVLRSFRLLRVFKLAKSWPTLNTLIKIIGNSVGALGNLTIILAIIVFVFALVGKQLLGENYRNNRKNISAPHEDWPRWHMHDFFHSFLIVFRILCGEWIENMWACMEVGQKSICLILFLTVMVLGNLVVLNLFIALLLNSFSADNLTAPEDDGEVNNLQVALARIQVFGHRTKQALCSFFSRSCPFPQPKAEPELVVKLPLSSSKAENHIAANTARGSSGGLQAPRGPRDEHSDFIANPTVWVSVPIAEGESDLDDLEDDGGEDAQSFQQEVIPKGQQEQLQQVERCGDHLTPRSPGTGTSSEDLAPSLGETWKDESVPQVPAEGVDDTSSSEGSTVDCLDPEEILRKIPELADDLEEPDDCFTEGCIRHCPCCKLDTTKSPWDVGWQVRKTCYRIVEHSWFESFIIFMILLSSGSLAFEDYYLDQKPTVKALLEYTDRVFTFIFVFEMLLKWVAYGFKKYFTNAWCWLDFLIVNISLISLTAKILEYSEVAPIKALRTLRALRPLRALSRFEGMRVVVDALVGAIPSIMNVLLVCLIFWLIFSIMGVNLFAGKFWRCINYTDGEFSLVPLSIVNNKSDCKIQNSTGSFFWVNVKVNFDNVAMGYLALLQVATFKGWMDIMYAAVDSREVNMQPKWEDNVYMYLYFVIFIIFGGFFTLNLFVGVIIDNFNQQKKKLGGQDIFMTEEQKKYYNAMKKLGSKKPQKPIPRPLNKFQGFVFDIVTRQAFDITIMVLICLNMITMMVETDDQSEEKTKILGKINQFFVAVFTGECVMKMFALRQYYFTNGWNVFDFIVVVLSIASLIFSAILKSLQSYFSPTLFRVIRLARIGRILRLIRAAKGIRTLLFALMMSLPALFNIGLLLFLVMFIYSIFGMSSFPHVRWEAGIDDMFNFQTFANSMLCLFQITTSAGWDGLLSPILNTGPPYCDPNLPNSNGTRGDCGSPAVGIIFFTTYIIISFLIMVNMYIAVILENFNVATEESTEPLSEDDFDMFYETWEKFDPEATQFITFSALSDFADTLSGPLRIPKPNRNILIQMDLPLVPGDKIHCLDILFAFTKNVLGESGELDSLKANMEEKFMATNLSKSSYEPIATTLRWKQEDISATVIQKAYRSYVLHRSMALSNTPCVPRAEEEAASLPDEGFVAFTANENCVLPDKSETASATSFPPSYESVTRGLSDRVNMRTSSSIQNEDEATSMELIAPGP
# experiment_description: Inhibition of human recombinant Nav1.8 channel expressed in HEK293 cells at 0.1 uM by whole cell voltage clamp technique
# Type: cell-based
endpoint_name: inhibition (%)
Your answer should be a plain number; it is taken to be in %.

Some solved cases for reference:
| structure_as_smiles | inhibition, % |
| --- | --- |
| CC(C)(C)c1ccc(-c2ccc(C(=O)N3CCNCC3)o2)cc1 | 44 |
| O=C(c1ccc(-c2ccc(OC(F)(F)F)cc2)o1)N1CCN(C2CCCCC2)CC1 | 42 |
| O=C(c1ccc(-c2cccc(Cl)c2)o1)N1CCN(C2CCCCC2)CC1 | 22 |
| O=C(c1ccc(-c2ccc(Oc3ccccc3)cc2)o1)N1CCNCC1 | 39 |
| CC(C)(C)c1ccc(-c2ccc(C(=O)N3CCN(C4CCCCC4)CC3)o2)cc1 | 81 |
| CN1CCN(C(=O)c2ccc(-c3ccc(Oc4ccccc4)cc3)o2)CC1 | 35 |

Query :: Lab note: need inhibition with Sodium channel protein type 10 subunit alpha (Homo sapiens, UniProt Q9Y5Y9) for entry `O=C(NCCN1CCCCC1)c1ccc(-c2ccc(Cl)cc2)o1` , please look it up.
Result :: 29

====

# experiment_description: Ratio of drug level in brain to plasma in Sprague-Dawley rat
# Type: ADME
# details: Sprague-Dawley, brain and plasma
Overview of reported Kp across a group of molecules:
Please reply with the number alone, leaving off any unit.

Below are worked cases with known answers.
| molecule | Kp |
| --- | --- |
| O=C(c1ccc(-c2ccc(Cl)cc2)o1)N1CCN(C2CCCCC2)CC1 | 9 |
| CC(C)(C)c1ccc(-c2ccc(C(=O)N3CCN(C4CCCCC4)CC3)o2)cc1 | 8 |
| O=C(c1ccc(-c2ccc(Cl)cc2)o1)N1CCNCC1 | 9 |

Query :: For the molecule Cc1cccc(C)c1OCC(C)N (centres undefined) , what Kp is on record?
Result :: 1.4

====

Reported Vd values for a set of compounds
# experiment_description: Volume of distribution at steady state in Sprague-Dawley rat at 10 mg/kg
# Type: ADME, organism-based
# Design: dose 10 mg/kg
# details: in vivo, read-out: Vdss
Dear colleague, please return just the value in L/kg, with no unit written.

Examples with their reported Vd follow.
| compound | Vd (L/kg) |
| --- | --- |
| O=C(c1ccc(-c2ccc(Cl)cc2)o1)N1CCN(C2CCCCC2)CC1 | 7.8 |
| Nc1nnc(-c2cccc(Cl)c2Cl)c(N)n1 [LAMOTRIGINE] | 0.98 |

Query :: Returns the measured Vd for the input compound. Input: `CC(C)(C)c1ccc(-c2ccc(C(=O)N3CCN(C4CCCCC4)CC3)o2)cc1`
Result :: 13.4

Query :: // returns reported Vd for input `O=C(c1ccc(-c2ccc(Cl)cc2)o1)N1CCNCC1`
Result :: 24

====

Overview of recorded IC50 for various compounds
# experimental_system: Sodium channel protein type 5 subunit alpha (Homo sapiens, UniProt Q14524)
# Sequence (Q14524 whole entry): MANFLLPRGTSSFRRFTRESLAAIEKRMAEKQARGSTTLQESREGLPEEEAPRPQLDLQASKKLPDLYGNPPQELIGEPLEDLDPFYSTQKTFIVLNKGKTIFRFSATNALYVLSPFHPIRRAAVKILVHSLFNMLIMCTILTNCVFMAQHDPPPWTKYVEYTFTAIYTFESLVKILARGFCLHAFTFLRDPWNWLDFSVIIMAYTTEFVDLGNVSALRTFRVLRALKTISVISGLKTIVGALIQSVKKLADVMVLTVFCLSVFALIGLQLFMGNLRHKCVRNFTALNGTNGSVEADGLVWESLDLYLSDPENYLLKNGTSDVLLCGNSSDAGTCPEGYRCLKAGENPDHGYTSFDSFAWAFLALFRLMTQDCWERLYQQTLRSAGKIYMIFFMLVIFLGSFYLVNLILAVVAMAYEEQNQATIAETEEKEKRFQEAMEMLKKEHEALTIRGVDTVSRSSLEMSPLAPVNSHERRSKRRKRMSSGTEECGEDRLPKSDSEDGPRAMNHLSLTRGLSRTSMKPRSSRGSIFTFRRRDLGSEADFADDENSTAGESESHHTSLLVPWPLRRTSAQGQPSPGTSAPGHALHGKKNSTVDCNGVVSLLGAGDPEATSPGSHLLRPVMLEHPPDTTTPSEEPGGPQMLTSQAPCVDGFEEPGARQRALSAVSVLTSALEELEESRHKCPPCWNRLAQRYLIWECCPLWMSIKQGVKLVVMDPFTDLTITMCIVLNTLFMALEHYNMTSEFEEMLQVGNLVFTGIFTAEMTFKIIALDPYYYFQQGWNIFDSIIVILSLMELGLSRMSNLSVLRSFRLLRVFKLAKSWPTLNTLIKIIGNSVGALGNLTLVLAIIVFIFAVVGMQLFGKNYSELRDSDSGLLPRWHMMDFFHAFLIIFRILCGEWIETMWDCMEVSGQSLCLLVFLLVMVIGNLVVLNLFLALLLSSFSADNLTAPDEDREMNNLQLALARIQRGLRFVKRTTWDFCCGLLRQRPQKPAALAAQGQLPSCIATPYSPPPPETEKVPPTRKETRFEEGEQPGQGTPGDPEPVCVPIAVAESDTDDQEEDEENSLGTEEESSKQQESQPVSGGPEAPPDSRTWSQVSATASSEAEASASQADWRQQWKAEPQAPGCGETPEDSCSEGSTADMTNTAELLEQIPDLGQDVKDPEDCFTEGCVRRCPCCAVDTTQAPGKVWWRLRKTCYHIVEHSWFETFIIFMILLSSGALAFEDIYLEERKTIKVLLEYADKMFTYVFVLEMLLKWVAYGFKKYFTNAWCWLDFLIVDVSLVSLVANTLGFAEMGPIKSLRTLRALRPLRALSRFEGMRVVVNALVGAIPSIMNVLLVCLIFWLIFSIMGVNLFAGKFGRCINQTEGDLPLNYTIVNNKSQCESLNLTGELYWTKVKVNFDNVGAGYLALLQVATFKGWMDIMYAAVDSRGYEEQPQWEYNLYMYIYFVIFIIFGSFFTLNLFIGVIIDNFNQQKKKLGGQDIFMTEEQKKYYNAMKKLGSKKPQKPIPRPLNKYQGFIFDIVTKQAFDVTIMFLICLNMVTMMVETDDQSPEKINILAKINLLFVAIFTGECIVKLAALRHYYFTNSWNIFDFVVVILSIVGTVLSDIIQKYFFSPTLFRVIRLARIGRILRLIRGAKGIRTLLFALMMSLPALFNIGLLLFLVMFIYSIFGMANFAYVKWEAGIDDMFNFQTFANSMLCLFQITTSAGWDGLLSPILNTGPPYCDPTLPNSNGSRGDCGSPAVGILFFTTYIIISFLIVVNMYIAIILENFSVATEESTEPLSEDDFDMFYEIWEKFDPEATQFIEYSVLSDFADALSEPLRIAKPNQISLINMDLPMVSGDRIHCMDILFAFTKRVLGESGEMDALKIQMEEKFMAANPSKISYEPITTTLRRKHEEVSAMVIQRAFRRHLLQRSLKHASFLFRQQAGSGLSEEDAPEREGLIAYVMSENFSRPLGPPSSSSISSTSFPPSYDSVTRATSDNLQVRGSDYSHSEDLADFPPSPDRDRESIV
# experiment_description: Inhibition of human recombinant Nav1.5 channel expressed in HEK293 cells by whole cell voltage clamp technique
Response body: numeric value in µM, unit text excluded.

| structure_as_smiles | IC50 / µM |
| --- | --- |
| O=C(c1ccc(-c2ccc(Cl)cc2)o1)N1CCNCC1 | 4.6 |
| Nc1nnc(-c2cccc(Cl)c2Cl)c(N)n1 | 62 |
| O=C(c1ccc(-c2ccc(Cl)cc2)o1)N1CCN(C2CCCCC2)CC1 | 2.3 |

Query :: Look up IC50: `CC(C)(C)c1ccc(-c2ccc(C(=O)N3CCN(C4CCCCC4)CC3)o2)cc1`
Result :: 0.1
